Listing: pKd of selected binders
Molecular target: T1, PUF4 RNA-binding domain (Saccharomyces cerevisiae, UniProt P25339 537-888)
T1 sequence: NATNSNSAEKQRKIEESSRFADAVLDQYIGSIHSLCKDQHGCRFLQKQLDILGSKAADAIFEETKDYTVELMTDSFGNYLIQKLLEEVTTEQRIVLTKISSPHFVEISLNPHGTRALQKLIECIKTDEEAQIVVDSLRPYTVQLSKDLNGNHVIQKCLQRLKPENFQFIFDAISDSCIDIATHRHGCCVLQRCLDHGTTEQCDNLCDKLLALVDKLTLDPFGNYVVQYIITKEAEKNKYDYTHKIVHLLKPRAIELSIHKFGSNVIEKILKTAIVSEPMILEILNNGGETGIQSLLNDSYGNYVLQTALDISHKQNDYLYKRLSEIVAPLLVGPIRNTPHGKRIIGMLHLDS
Test: Mg; RNA-MaP; 20 mM Na-HEPES pH 7.4, 30 mM KOAc, 0.75 mM MgCl2, 0.1% Tween-20, 5% glycerol, 0.1 mg/mL BSA, 2 mM DTT; 25 C; 0.0125-409.6 nM protein
Conditions: tags: N-His6-TEV cleaved; C-SNAP kept, Cy3B-labelled; label: tethered on chip by stalled RNA polymerase
Note on pKd: it is the negative log10 of concentration, concentration in mol/L.

Reference set (2 entries):
UCUCUUUAUAUUUUAUCUCUU (ssRNA) [Ib_S1_P4E.1_K4.1_C4.1_H4.1_[G2A]_A4.1_[A6T]_F4.1_T4.1] ... 6.79
Ic_S2_P3E.1_K3.1_C3.1_H3.1_A3.1_[T5C]_[A6T]_F3.1_[A8T]_T3.1 (ssRNA) RNA: UUUGAUUAAUAUGAUAUCGUUCUUUCUUGUACUUUUUCUUUCUCGAUAUCAUAUUAAUCUUU ... 8.01

Given the binder Ie_S4_P3E.2_K3.1_C3.2_H3.1_[+2TTT]_A3.1_F3.1_T3.2 (ssRNA) RNA: UUUGACAACUGAUCGUUCUUUCUCUUGUUUUAUAUAUAUUCUUUCUCGAUCAGUUGUCUUU , what is its reported pKd? 7.78
